Molecular target: CDK9 (Homo sapiens, UniProt P50750)
Construct: endogenous in cells; host or cells: MDA-MB-231
Sequence (P50750 whole entry): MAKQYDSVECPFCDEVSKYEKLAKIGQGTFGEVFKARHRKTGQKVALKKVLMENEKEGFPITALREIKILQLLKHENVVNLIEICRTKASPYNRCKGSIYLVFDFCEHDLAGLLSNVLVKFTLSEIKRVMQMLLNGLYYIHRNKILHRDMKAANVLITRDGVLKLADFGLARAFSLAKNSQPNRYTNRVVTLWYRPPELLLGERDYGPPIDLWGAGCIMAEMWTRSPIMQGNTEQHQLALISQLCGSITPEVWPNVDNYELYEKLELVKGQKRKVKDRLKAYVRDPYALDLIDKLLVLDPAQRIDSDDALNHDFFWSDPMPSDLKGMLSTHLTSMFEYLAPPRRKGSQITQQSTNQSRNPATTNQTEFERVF
Test: CDK protein degradation activity (Western blotting), CDK9
Assay type: cell-based
Details: MDA-MB-231 cells, 10 μM, 16 hours, Western blot
// values below are reported Enzyme degradation CDK9 (% remaining) @ 10 μM
recorded-endpoint: Enzyme degradation CDK9 (% remaining) @ 10 μM

• Cc1cccc(C(=O)NC2CC(n3cnc4c(NCCC5CCN(CC6CCN(C(=O)C7CN(c8ccc9c(c8)C(=O)N([C@H]8CCC(=O)NC8=O)C9=O)C7)CC6)CC5)ncnc43)C2)n1 (stereo partly shown) [Compound 309] = 0/0/0%
• O=C1CC[C@@H](c2ccc(OCC(=O)N3CCN(CCCN4CCN(c5ccc(Nc6ncnc7c6ncn7C6CC(NC(=O)Cc7ccccc7)C6)cc5)CC4)CC3)cc2)C(=O)N1 (stereo partly shown) [Compound 236] = 0%
• O=C1CCC(N2C(=O)c3cc(F)c(N4CCC(CN5CCC(CCNc6ncnc7c6ncn7[C@H]6C[C@@H](NC(=O)Cc7ccccc7)C6)CC5)CC4)cc3C2=O)C(=O)N1 (stereo partly shown) [Compound 409] = 10%
• O=C1CCN(c2coc3cc(C(=O)N4CCC5(CC4)CC(N4CCN(c6ccc(Nc7ncnc8c7ncn8[C@H]7C[C@@H](NC(=O)Cc8ccccc8)C7)cc6)CC4)C5)ccc23)C(=O)N1 [Compound 191] = 0/0/0%
• O=C1CC[C@H](N2C(=O)c3cc(F)c(N4CCC(C(=O)N5CCC(CN6CCN(c7ccc(Nc8ncnc9c8ncn9[C@H]8C[C@@H](NC(=O)c9c(Cl)cccc9Cl)C8)cc7)CC6)CC5)CC4)cc3C2=O)C(=O)N1 [Compound 462] = 0/0/0%
• O=C1CC[C@@H](c2cccc(OCC(=O)N3CCC(CN4CCN(c5ccc(Nc6ncnc7c6ncn7C6CC(NC(=O)Cc7ccccc7)C6)cc5)CC4)CC3)c2)C(=O)N1 (stereo partly shown) [Compound 225] = 0%
• O=C1CC[C@H](N2C(=O)c3cccc(NCC(=O)N4CCN(CC5CCN(c6ccc(Nc7ncnc8c7ncn8[C@H]7C[C@@H](NC(=O)c8c(Cl)cccc8Cl)C7)cc6)CC5)CC4)c3C2=O)C(=O)N1 [Compound 311] = 0%
• Cc1cccc(C(=O)NC2CC(n3cnc4c(NCCC5CCN(CC6CCN(c7cccc8c7C(=O)N([C@H]7CCC(=O)NC7=O)C8=O)CC6)CC5)ncnc43)C2)n1 (stereo partly shown) [Compound 306] = 10%
• O=C1CC[C@@H](c2ccc(OCC(=O)N3CCC4(CC(N5CCN(c6ccc(Nc7ncnc8c7ncn8C7CC(NC(=O)Cc8ccccc8)C7)cc6)CC5)C4)C3)cc2)C(=O)N1 (stereo partly shown) [Compound 268] = 0%
• O=C1CC[C@H](N2C(=O)c3ccc(N4CCC(C(=O)N5CCC(N6CCN(c7ccc(Nc8ncnc9c8ncn9[C@H]8C[C@@H](NC(=O)Cc9ccccc9)C8)cc7)CC6)CC5)CC4)cc3C2=O)C(=O)N1 [Compound 343] = 0%
